Data provenance: ChEMBL document CHEMBL1201862

system: HCC 2998; experiment: NCI tumour cell line growth inhibition, 48 h
The source made the active and inactive calls. No stated cut-off is given here; in the data, active = GI50 up to about 1.1 µM and inactive = higher.
outcome-measure: GI50

Reference set, count: 2
Cn1nc2ccc3nccc(NCCNCCO)c3c2n1: 40.6 µM (inactive)
CC(=O)O[C@@H]1CC[C@@]2(C)C(=O)C34C[C@@]5(C)C([C@@H](C)CCCC(C)C)CCC5(C)[C@](O)(O3)C(=O)[C@H]4C2C1(C)C (stereo partly drawn): 11.3 µM (inactive)

Would you kindly look at the next entry?
Task: Query (compound): CS(=O)(=O)C(C#N)c1nc2ccccc2nc1Cl (stereo not drawn) ; field requested: GI50
Result: > 32.2 µM (inactive)
